target: UniProt P31749; settings: compound 10.0 µM
Sequence (P31749 whole entry, looked up): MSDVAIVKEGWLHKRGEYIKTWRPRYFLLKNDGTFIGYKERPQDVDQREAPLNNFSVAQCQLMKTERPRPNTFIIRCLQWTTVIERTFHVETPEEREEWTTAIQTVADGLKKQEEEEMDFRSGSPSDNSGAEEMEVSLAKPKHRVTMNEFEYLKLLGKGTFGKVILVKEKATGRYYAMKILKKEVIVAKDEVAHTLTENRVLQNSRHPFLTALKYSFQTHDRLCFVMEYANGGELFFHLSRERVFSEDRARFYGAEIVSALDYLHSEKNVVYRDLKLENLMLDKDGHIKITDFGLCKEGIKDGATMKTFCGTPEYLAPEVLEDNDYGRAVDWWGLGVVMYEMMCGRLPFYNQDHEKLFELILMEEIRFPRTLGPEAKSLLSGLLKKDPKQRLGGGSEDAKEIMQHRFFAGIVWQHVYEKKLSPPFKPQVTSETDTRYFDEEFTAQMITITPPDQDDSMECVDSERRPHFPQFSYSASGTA
The compounds listed here are annotated with their inhibition.
READOUT: inhibition (%)

[[record]]
compound = "Cc1cc(C)c(/C=C2\\C(=O)Nc3ccccc32)[nH]1"
target_entity = "UniProt P31749"
data_value = 0

[[record]]
compound = "Cc1ccc(NC(=O)c2cccc(N(C)C)c2)cc1NC(=O)c1ccc(O)cc1"
target_entity = "UniProt P31749"
data_value = 0

[[record]]
compound = "CCN(CC)CCCCN1c2ccccc2Oc2ccc(Cl)cc21"
target_entity = "UniProt P31749"
data_value = 0

[[record]]
compound = "NC(=O)c1ccc(-c2nc(-c3ccccn3)c(-c3ccc4c(c3)OCO4)[nH]2)cc1"
target_entity = "UniProt P31749"
data_value = 1

[[record]]
compound = "NC(=O)Nc1sc(-c2ccc(F)cc2)cc1C(N)=O"
target_entity = "UniProt P31749"
data_value = 0

[[record]]
compound = "N#C/C(=C(/N)Sc1ccc(N)cc1)c1ccccc1C(F)(F)F"
target_entity = "UniProt P31749"
data_value = 0

[[record]]
compound = "Brc1c(Br)c(Br)c2[nH]nnc2c1Br"
target_entity = "UniProt P31749"
data_value = 0

[[record]]
compound = "CCN(CC)CCNC(=O)c1c(C)[nH]c(/C=C2\\C(=O)Nc3ccc(F)cc32)c1C"
target_entity = "UniProt P31749"
data_value = 28

[[record]]
compound = "CC(=O)c1c(O)c(C)c(O)c(Cc2c(O)c3c(c(C(=O)/C=C/c4ccccc4)c2O)OC(C)(C)C=C3)c1O"
target_entity = "UniProt P31749"
data_value = 24

[[record]]
compound = "O=c1cc(N2CCOCC2)oc2c1ccc1ccccc12"
target_entity = "UniProt P31749"
data_value = 0

[[record]]
compound = "CC[C@@H](CO)Nc1nc(NCc2ccccc2)c2ncn(C(C)C)c2n1"
target_entity = "UniProt P31749"
data_value = 0

[[record]]
compound = "COc1cc2ncn(-c3cc(OCc4ccccc4C(F)(F)F)c(C(N)=O)s3)c2cc1OC"
target_entity = "UniProt P31749"
data_value = 12

[[record]]
compound = "O=C(Nc1cc(C(F)(F)F)cc(C(F)(F)F)c1)c1cc(Cl)ccc1O"
target_entity = "UniProt P31749"
data_value = 0

[[record]]
compound = "c1cc(-c2cnn3cc(-c4ccc(OCCN5CCCCC5)cc4)cnc23)ccn1"
target_entity = "UniProt P31749"
data_value = 0

[[record]]
compound = "Cn1cnc2c(NCc3ccccc3)nc(NCCO)nc21"
target_entity = "UniProt P31749"
data_value = 5

[[record]]
compound = "NC(=O)c1ccc(-c2nc(-c3ccccn3)c(-c3ccc4c(c3)OCCO4)[nH]2)cc1"
target_entity = "UniProt P31749"
data_value = 2

[[record]]
compound = "CC(C)[C@H](CO)Nc1nc(Nc2cc(N)cc(Cl)c2)c2ncn(C(C)C)c2n1"
target_entity = "UniProt P31749"
data_value = 0

[[record]]
compound = "CC(C)(C)n1nc(-c2ccc(Cl)cc2)c2c(N)ncnc21"
target_entity = "UniProt P31749"
data_value = 0

[[record]]
compound = "N#C/C(=C\\c1ccc(O)c(O)c1)C(N)=S"
target_entity = "UniProt P31749"
data_value = 0

[[record]]
compound = "O=C(NC(NC(=S)Nc1ccc(F)c([N+](=O)[O-])c1)C(Cl)(Cl)Cl)C(c1ccccc1)c1ccccc1 (configuration not stated)"
target_entity = "UniProt P31749"
data_value = 5

[[record]]
compound = "Cn1cc(/C=C2/C(=O)Nc3cccnc32)c2ccccc21"
target_entity = "UniProt P31749"
data_value = 0

[[record]]
compound = "O=S(=O)(c1cccc2c(Cl)cccc12)N1CCCNCC1"
target_entity = "UniProt P31749"
data_value = 2

